- Assay Target: human activated blood coagulation factor X (Homo sapiens, UniProt P00742)
- Construct: purchased Calbiochem Corporation
- Sequence (P00742 235-488 limits assumed): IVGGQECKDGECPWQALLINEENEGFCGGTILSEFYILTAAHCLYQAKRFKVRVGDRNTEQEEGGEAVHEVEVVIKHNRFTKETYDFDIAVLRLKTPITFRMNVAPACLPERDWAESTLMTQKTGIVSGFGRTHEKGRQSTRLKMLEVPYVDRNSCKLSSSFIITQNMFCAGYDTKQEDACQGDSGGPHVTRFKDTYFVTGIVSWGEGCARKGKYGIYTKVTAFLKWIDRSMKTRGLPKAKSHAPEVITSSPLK
- Sequence (P00742 41-179 partner limits assumed): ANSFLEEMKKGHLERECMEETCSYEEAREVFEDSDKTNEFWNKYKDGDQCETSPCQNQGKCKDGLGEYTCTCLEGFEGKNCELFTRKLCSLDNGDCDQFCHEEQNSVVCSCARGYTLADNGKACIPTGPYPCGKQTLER
- Method Notes: Measurement of inhibitory activity for activated blood coagulation factor X (S-2222 chromogenic substrate)
- Type: biochemical
Where a name gives a salt, the structure may show the parent alone.
# maps each entry to its pIC50
Note: pIC50 values are expressed as the negative base-10 logarithm of concentration in M.

As a guide, the following entries are already answered.
CC(=N)N1CCC(c2ccc(CCNS(=O)(=O)c3cc(C(=N)N)ccc3O)cc2)CC1 [Compound 8] : 7.06
CC(=N)N1CC[C@H](Oc2ccc(CCNS(=O)(=O)c3cc(C(=N)N)ccc3O)cc2)C1 [Compound 9, dihydrochloride] : 7.06

Please find the next compound below.
Ask | Report pIC50 for CC(=N)N1CCC(Oc2ccc(CCNS(=O)(=O)c3cc(C(=N)N)ccc3O)cc2)CC1 [Compound 10, dihydrochloride] please.
Reply | 6.96

These entries and their values trace back to patent EP1174421A1.
